tested on: Pseudomonas fluorescens FW300-N2E2; conditions: medium / electron acceptor: N2E2 R2A/aerobic
Hi! Just check whether IC50 growth inhibition is below 300 mM. Below gives satisfied, equal or above gives not satisfied.

[
  {
    "molecule": "[O-][I+2]([O-])O [sodium iodate]",
    "assaySystem": "Pseudomonas fluorescens FW300-N2E2",
    "category": "satisfied"
  },
  {
    "molecule": "O=NO [Sodium nitrite]",
    "assaySystem": "Pseudomonas fluorescens FW300-N2E2",
    "category": "satisfied"
  },
  {
    "molecule": "[Cl-].[Na+] [Sodium Chloride]",
    "assaySystem": "Pseudomonas fluorescens FW300-N2E2",
    "category": "not satisfied"
  },
  {
    "molecule": "O=S(O)(O)=S [Sodium thiosulfate]",
    "assaySystem": "Pseudomonas fluorescens FW300-N2E2",
    "category": "not satisfied"
  },
  {
    "molecule": "[Br-].[Na+] [sodium bromide]",
    "assaySystem": "Pseudomonas fluorescens FW300-N2E2",
    "category": "not satisfied"
  },
  {
    "molecule": "O.[Au+3].[Cl-].[Cl-].[Cl-] [gold (III) chloride hydrate]",
    "assaySystem": "Pseudomonas fluorescens FW300-N2E2",
    "category": "satisfied"
  },
  {
    "molecule": "[Cl][Ga]([Cl])[Cl] [Gallium(III)chloride]",
    "assaySystem": "Pseudomonas fluorescens FW300-N2E2",
    "category": "satisfied"
  },
  {
    "molecule": "O=[Si](O)O [Sodium metasilicate]",
    "assaySystem": "Pseudomonas fluorescens FW300-N2E2",
    "category": "satisfied"
  },
  {
    "molecule": "O.O.O.O.O.O.O.O=[As]([O-])([O-])O.[Na+].[Na+] [Sodium arsenate dibasic heptahydrate]",
    "assaySystem": "Pseudomonas fluorescens FW300-N2E2",
    "category": "satisfied"
  },
  {
    "molecule": "O.O.O.O.O.O.[Cl-].[Cl-].[Mg+2] [Magnesium chloride hexahydrate]",
    "assaySystem": "Pseudomonas fluorescens FW300-N2E2",
    "category": "satisfied"
  }
]
